Each entry below lists one item and its recorded mortality at 300 ppm value.
- System: Cotton Aphid (Aphis gossypii)
- TEST NAME: Cotton aphid (Aphis gossypii) test, infested cotton cotyledons dipped in test solution
- Format: in vivo
- CONDITION PARAMETERS: 120 h, determined after 5 days, read-out: mortality of cotton aphid (Aphis gossypii, mixed life stages) in comparison with untreated controls

Lookup: Need mortality at 300 ppm of `CN(C(=O)c1ccc(C(F)(F)F)nc1)c1nsc2cccc(Cl)c12` , thanks.
Found: ≥ 89%

Lookup: Now consider `COc1cccc2snc(N=S(C)C)c12` .
Found: ≥ 89%

Lookup: Please answer likewise for `COc1cccc2snc(N(C)C(=O)c3cnccc3C(F)(F)F)c12`
Found: ≥ 89%

From: patent US8119568B2
